test system: HCT-116 colon; test: NCI-60 one-dose screen, 48 h; details: 10 µM unless noted
About 83,000 compounds went through this panel and 20% of them were active in at least one assay; those are over-represented in the sample as a whole. Activity calls are given as the source filed them. Rule for the calls: active = growth percent below 10; inactive = the rest.
Log the outcome using a class from Y (active), N (inactive)

Would you please look over these solved cases?
{"columns": ["COMPOUND", "QUALITATIVE LABEL"],
 "data": [
  ["COC(=O)CC[C@H](Cc1ccccc1)NC(=O)c1csc([C@@H](C[C@H](C(C)C)N(C)C(=O)[C@@H](NC(=O)[C@H]2CCCCN2C)C(C)C)OC(C)=O)n1", "N"],
  ["COC(=O)[C@@H](C)C[C@H](Cc1ccccc1)NC(=O)c1csc([C@@H](C[C@H](C(C)C)N(C)C(=O)C2(NC(=O)[C@H]3CCCCN3C)CCC2)OC(C)=O)n1", "Y"],
  ["C[C@@]1(CCCCCCCCCc2ccc(O)cc2)C[C@]2(C)OC(=O)C[C@@H]2OO1", "N"],
  ["NC(=O)CNc1ccc([As]=[As]c2ccc(NCC(N)=O)cc2)cc1 (centres undefined)", "N"],
  ["Fc1ccc(N2COOC3(OOC2)C2CC4CC(C2)CC3C4)cc1", "N"]
]}

Would you kindly look at the next entry?
Which outcome was assigned to ClC1=C(Cl)C(Cl)(C2(Cl)C(Cl)=C(Cl)C(Cl)=C2Cl)C(Cl)=C1Cl in this test?
Y

----------
test system: HCC-2998 colon; test: NCI-60 one-dose screen, 48 h (100 = growth as untreated, 0 = no growth, -100 = all killed); conditions: 10 µM unless noted
This is part of a sample that, as a whole, favours compounds with a hit. Of some 83,000 tested, about 20% had one in any assay. The source made the active and inactive calls. Rule for the calls: active = growth percent below 10; inactive = the rest.
EXPERIMENTAL ENDPOINT: growth

Recorded results for 5 molecules are shown here.
{"columns": ["TEST SMILES", "VALUE"],
 "data": [
  ["c1ccc(Nc2nc(-c3ccccc3)c[se]2)cc1", "86.5% (inactive)"],
  ["[Cl][Hg][n]1c(-c2ccco2)nc2ccccc21", "116% (inactive)"],
  ["CC(=O)/C=C/c1ccc2c(c1)OCO2", "109% (inactive)"],
  ["NC(=Nc1ccccc1)N[N+](=O)[O-]", "98.8% (inactive)"],
  ["CC(=O)O[C@@H]1CC[C@]2(C)[C@H]3CC[C@]4(C)C(=O)CC[C@H]4[C@@H]3C[C@@H]3SC(N)=N[C@@]32C1", "82.1% (inactive)"]
]}

Looking for the measured growth of Nc1c(F)cc(-c2nc3cc(F)ccc3[se]2)cc1F , can you help?
-44.5% (active)

Looking for the measured growth of O=C(Nc1ccncc1F)c1cn(CC2CC2)c2ccccc12 , can you help?
106% (inactive)

Looking for the measured growth of COC[C@@H]1C[C@@]2(C)[C@@H](CC[C@@H]3[C@@H]2CC[C@@]2(C)[C@H]3CC[C@]2(C)O)CC1=O , can you help?
94.9% (inactive)

Looking for the measured growth of COC(=O)[C@@H](C[C@H](Cc1ccccc1)NC(=O)c1csc([C@@H](C[C@H](C(C)C)N(C)C(=O)[C@@H](NC(=O)[C@H]2CCCCN2C)C(C)C)OC(C)=O)n1)NC(=O)OCc1ccccc1 , can you help?
19.5% [9.5 µM] (inactive)
